assay_remarks: Single-dose crossover bioavailability study, REP plasma levels by LC-MS/MS
Assay type: in vivo, rabbits
measurement_setup: male, albino, rabbit, po
property: AUC(0-t) (ng·h/mL)
Reply with just the number (in ng·h/mL).

Prompt line: # return recorded AUC(0-t) for input CCOc1cc(CC(=O)N[C@@H](CC(C)C)c2ccccc2N2CCCCC2)ccc1C(=O)O [Plain REP, Repaglinide]
Response line: 93400

----------
assay_remarks: Single-dose crossover bioavailability study, REP plasma levels by LC-MS/MS
Format: in vivo, rabbits
measurement_setup: male, albino, rabbit, po
property: Cmax

Prompt line: # return recorded Cmax for input CCOc1cc(CC(=O)N[C@@H](CC(C)C)c2ccccc2N2CCCCC2)ccc1C(=O)O [Plain REP, Repaglinide]
Response line: 31900 ng/mL
